experimental.system: DNA gyrase (Escherichia coli) (UniProt P0AES6+P0AES4)
assay.protocol: In vitro activity against Escherichia coli DNA gyrase supercoiling
Assay type: protein-complex assay
result.type: MNEC

# chemical.smiles, experimental.system, result
data = [
    ("Cc1[nH]c2ccccc2c1/C=C1\\C(=O)Nc2ccccc21", "DNA gyrase (Escherichia coli) (UniProt P0AES6+P0AES4)", "> 100 µM"),
    ("Oc1[nH]c2ccccc2c1/N=N/c1n[nH]c2c3ccccc3nc-2n1", "DNA gyrase (Escherichia coli) (UniProt P0AES6+P0AES4)", "> 100 µM"),
    ("O=C1Nc2ccccc2/C1=C/c1c[nH]c(-c2ccccc2)n1", "DNA gyrase (Escherichia coli) (UniProt P0AES6+P0AES4)", "> 100 µM"),
    ("O=C1N=C(N2CCOCC2)S/C1=C1\\C(=O)Nc2ccccc21", "DNA gyrase (Escherichia coli) (UniProt P0AES6+P0AES4)", "> 100 µM"),
    ("CCCCc1nc(/C=C2\\C(=O)Nc3ccccc32)c[nH]1", "DNA gyrase (Escherichia coli) (UniProt P0AES6+P0AES4)", "50 µM"),
    ("O=C1Nc2ccccc2/C1=C/c1c[nH]nc1-c1cccs1", "DNA gyrase (Escherichia coli) (UniProt P0AES6+P0AES4)", "> 100 µM"),
    ("O=C1Nc2ccccc2/C1=C/c1cccnc1", "DNA gyrase (Escherichia coli) (UniProt P0AES6+P0AES4)", "> 100 µM"),
    ("O=C1Nc2ccccc2/C1=C/c1ccc([N+](=O)[O-])cc1", "DNA gyrase (Escherichia coli) (UniProt P0AES6+P0AES4)", "> 100 µM"),
    ("O=C1Nc2ccccc2/C1=N/c1ccc(C(F)(F)F)cc1", "DNA gyrase (Escherichia coli) (UniProt P0AES6+P0AES4)", "> 100 µM"),
    ("O=C1Nc2ccccc2/C1=C/c1cnc[nH]1", "DNA gyrase (Escherichia coli) (UniProt P0AES6+P0AES4)", "100 µM"),
    ("CCc1nc(/C=C2\\C(=O)Nc3ccccc32)c[nH]1", "DNA gyrase (Escherichia coli) (UniProt P0AES6+P0AES4)", "< 100 µM"),
    ("O=C1Nc2ccccc2/C1=C/c1ccccc1N1CCOCC1", "DNA gyrase (Escherichia coli) (UniProt P0AES6+P0AES4)", "> 100 µM"),
    ("Cc1ccc2c(c1)/C(=N/N=C/c1c(O)ccc3ccccc13)C(=O)N2", "DNA gyrase (Escherichia coli) (UniProt P0AES6+P0AES4)", "> 100 µM"),
    ("O=C1Nc2ccccc2/C1=C/c1c[nH]c2cc([N+](=O)[O-])ccc12", "DNA gyrase (Escherichia coli) (UniProt P0AES6+P0AES4)", "> 100 µM"),
    ("CCc1nc(C)c(/C=C2\\C(=O)Nc3ccccc32)[nH]1", "DNA gyrase (Escherichia coli) (UniProt P0AES6+P0AES4)", "25 µM"),
    ("O=C(/N=N/c1c(O)[nH]c2ccc(Br)cc12)c1ccncc1", "DNA gyrase (Escherichia coli) (UniProt P0AES6+P0AES4)", "> 100 µM"),
]
